Values compiled from the supplement of paper PMC10567573.

B1: MYBL2 (parent)
chain: FSPSQFLNFWNKQDTLELESPSLT

Variants of: B1
Test: protein stability index of a GFP-peptide fusion (GPS, HEK-293T) (PSI 1-6); higher = more stable;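 note: lentivirally expressed fusions sorted by FACS into six bins by GFP to DsRed ratio, PSI derived from sequencing read proportions per bin multiplied by bin number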
Conditions: c terminus: a fixed tail appended
Kindly return yes (1) if reported protein stability index is no lower than 3; return no (0) if it is lower.

- FSPSQWLNFWNKQDTLELESPSLT [F6W]: no (0)
- FSPSQFLNFPNKQDTLELESPSLT [W10P]: yes (1)
- FSPSQFLNQWNKQDTLELESPSLT [F9Q]: no (0)
- FSPSQFLNFWNKQDSLELESPSLT [T15S]: yes (1)
- FSPSQFLNFWNKQDTLELESPSLY [T24Y]: no (0)
- FSPSQFLNFWNKQDTLELNSPSLT [E19N]: yes (1)
- FSPSQFLTFWNKQDTLELESPSLT [N8T]: yes (1)
- FSPSQFLNFWNKQDTLELEIPSLT [S20I]: no (0)
- SSPSQFLNFWNKQDTLELESPSLT [F1S]: yes (1)
